Target: serotonin receptor 5-HT2A (Homo sapiens, UniProt P28223)
Sequence (P28223 whole entry): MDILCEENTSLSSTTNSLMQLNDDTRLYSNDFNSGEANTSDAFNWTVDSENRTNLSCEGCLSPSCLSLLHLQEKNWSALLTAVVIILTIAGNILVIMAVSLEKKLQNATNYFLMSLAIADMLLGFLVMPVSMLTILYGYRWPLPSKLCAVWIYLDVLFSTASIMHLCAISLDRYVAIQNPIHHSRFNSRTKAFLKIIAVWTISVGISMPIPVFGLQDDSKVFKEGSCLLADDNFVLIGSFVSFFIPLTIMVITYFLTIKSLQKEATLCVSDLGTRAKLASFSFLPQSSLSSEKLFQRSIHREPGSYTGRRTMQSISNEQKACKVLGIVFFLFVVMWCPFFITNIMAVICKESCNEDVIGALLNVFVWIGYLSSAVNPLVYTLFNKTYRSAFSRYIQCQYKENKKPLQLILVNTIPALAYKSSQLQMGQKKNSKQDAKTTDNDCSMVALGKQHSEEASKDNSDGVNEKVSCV
Experiment: NIH-PDSP binding assay, 5-HT2A (3H-ketanserin)
Details: Table 7, Homologues Type I (Aminoethane Derivatives); — = No significant inhibition
Experimental: Biological Evaluation of selected compounds was done through the National Institutes of Health Psychoactive Drug Screening Program (NIH-PDSP). […] For the 3H-ligands 1-2 nM final concentration of radioligand was used. […] Samples were counted in a 96-well counter using 100 μl of scintillant/well. The Ki value of the reference compound was calculated using the LIGAND Program (Munson and Rodbard, 1980). The percent inhibition was calculated using the following formula: […]
experimental_endpoint: Ki (µM)
Write the number in µM without appending the unit.

// known answers, use as guide
- CN1CCN(CC(Oc2ccc(C(F)(F)F)cc2)c2ccccc2)CC1 (stereo not drawn): 0.405
- O=C(CCCN1CCN(CC(Oc2ccc(C(F)(F)F)cc2)c2ccccc2)CC1)c1ccc(F)cc1 (stereo not drawn) [Compound 15b]: 0.157

In the following, a different molecule is considered.
Recorded result, Fc1ccc(OC(CN2CCN(c3ccccc3)CC2)c2ccccc2)cc1 (stereo not drawn) , Ki: 1.12

----------
Biological target: human serotonin transporter (SERT) (Homo sapiens)
Assay: NIH-PDSP transporter binding assay, SERT (3H-Citalopram)
Details: Table 8, Homologues Type II (Aminopropane Derivatives)
As shown below, each of these compounds has a reported pKi value.
Please note pKi is a logarithmic value: minus log10 of concentration in mol/L. Answer with that number alone.

• O=C(CCCN1CCN(CCC(Oc2ccc(F)cc2)c2ccccc2)CC1)c1ccc(F)cc1 (stereo not shown) [Compound 32b] = 5.87
• O=C(CCCN1CCN(CCC(Oc2ccc(C(F)(F)F)cc2)c2ccccc2)CC1)c1ccc(F)cc1 (stereo not shown) [Compound 33b] = 6.14
• O=C(c1ccc(F)cc1)C1CCN(CCC(Oc2ccc(C(F)(F)F)cc2)c2ccccc2)CC1 (stereo not shown) [Compound 29b] = 5.91

Summary for this compound, COc1ccccc1N1CCN(CCC(Oc2ccc(C(F)(F)F)cc2)c2ccccc2)CC1 (stereo not shown) [Compound 23b] : pKi is 5.66

What the record says about Fc1ccc(OC(CCN2CCN(c3cccc(Cl)c3)CC2)c2ccccc2)cc1 (stereo not shown) [Compound 18b] : pKi is 6.54

response.value for FC(F)(F)c1ccc(OC(CCN2CCN(c3cccc(C(F)(F)F)c3)CC2)c2ccccc2)cc1 (stereo not shown) [Compound 21b] (field: pKi) = 5.88

Lab note: Fc1ccc(OC(CCN2CCC(c3noc4cc(F)ccc34)CC2)c2ccccc2)cc1 (stereo not shown) [Compound 30b] gave pKi of 5.77

Fc1ccc(OC(CCN2CCN(c3cccc(C(F)(F)F)c3)CC2)c2ccccc2)cc1 (stereo not shown) [Compound 20b] yielded pKi of 6.48

Looking up FC(F)(F)c1ccc(OC(CCN2CCN(c3ncccn3)CC2)c2ccccc2)cc1 (stereo not shown) [Compound 25b] , I found its pKi recorded as 5.17

The recorded pKi for entry FC(F)(F)c1ccc(OC(CCN2CCN(c3cccc(Cl)c3)CC2)c2ccccc2)cc1 (stereo not shown) [Compound 19b] equals 6.45

----------
Target: human serotonin transporter (SERT) (Homo sapiens, UniProt P31645)
Sequence (P31645 whole entry): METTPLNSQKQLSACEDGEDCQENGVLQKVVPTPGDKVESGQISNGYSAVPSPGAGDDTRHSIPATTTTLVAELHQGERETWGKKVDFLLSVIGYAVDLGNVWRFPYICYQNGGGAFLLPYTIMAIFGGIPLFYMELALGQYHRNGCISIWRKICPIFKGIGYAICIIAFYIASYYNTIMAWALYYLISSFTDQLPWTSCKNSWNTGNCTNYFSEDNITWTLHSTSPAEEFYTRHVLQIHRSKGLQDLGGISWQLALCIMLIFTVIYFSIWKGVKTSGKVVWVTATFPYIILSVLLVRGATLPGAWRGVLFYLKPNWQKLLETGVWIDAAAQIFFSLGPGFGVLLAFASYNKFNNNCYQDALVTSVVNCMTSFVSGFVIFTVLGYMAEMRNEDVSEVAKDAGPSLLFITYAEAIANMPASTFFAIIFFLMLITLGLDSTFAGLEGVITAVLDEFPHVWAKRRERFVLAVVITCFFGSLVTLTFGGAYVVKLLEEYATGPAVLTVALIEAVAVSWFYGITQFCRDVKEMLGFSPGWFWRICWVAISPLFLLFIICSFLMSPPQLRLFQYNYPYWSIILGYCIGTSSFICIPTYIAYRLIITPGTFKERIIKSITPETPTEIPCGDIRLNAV
Test: NIH-PDSP transporter binding assay, SERT (3H-Citalopram)
Conditions: Table 7, Homologues Type I (Aminoethane Derivatives)
A collection of compounds and their measured Ki

- Fc1ccc(OC(CN2CCN(c3ccccc3)CC2)c2ccccc2)cc1 (stereo not drawn): > 10 µM
- COc1ccccc1N1CCN(CC(Oc2ccc(C(F)(F)F)cc2)c2ccccc2)CC1 (stereo not drawn): ≥ 10 µM

Please look at the following compound next.
Looking up FC(F)(F)c1ccc(OC(CN2CCN(c3ccccc3)CC2)c2ccccc2)cc1 (stereo not drawn) , I found its Ki recorded as > 10 µM

----------
Biological target: human serotonin transporter (SERT) (Homo sapiens, UniProt P31645)
Assay: NIH-PDSP transporter binding assay, SERT (3H-Citalopram)
Details: Table 8, Homologues Type II (Aminopropane Derivatives)
experimental_endpoint: Ki (nM)
Respond numerically; units are nM and should not be typed.

Guide cases for Ki, answers given:
• Fc1ccc2c(C3CCN(CCC(Oc4ccc(C(F)(F)F)cc4)c4ccccc4)CC3)noc2c1 (stereo not drawn) [Compound 31b] = 718
• FC(F)(F)c1ccc(OC(CCN2CCN(c3ccccc3)CC2)c2ccccc2)cc1 (single isomer, unassigned) [Compound 17b] = 761

For this molecule ( Fc1ccc(OC(CCN2CCN(c3ccccc3)CC2)c2ccccc2)cc1 (stereo not drawn) [Compound 16b] ), measured Ki is 1130

----------
Target: serotonin receptor 5-HT2A (Homo sapiens, UniProt P28223)
Test: NIH-PDSP binding assay, 5-HT2A (3H-ketanserin)
Details: Table 8, Homologues Type II (Aminopropane Derivatives); — = No significant inhibition
experimental_endpoint: Ki (nM)
Write the number in nM without appending the unit.

// known answers, use as guide
* FC(F)(F)c1ccc(OC(CCN2CCN(c3ccccc3)CC2)c2ccccc2)cc1 (single isomer, unassigned) [Compound 17b] | 605
* Fc1ccc2c(C3CCN(CCC(Oc4ccc(C(F)(F)F)cc4)c4ccccc4)CC3)noc2c1 (stereo not drawn) [Compound 31b] | 23.2
* O=C(CCCN1CCN(CCC(Oc2ccc(C(F)(F)F)cc2)c2ccccc2)CC1)c1ccc(F)cc1 (stereo not drawn) [Compound 33b] | 406
* Fc1ccc(OC(CCN2CCC(c3noc4cc(F)ccc34)CC2)c2ccccc2)cc1 (stereo not drawn) [Compound 30b] | 398
* FC(F)(F)c1ccc(OC(CCN2CCN(c3cccc(Cl)c3)CC2)c2ccccc2)cc1 (stereo not drawn) [Compound 19b] | 1340

Measured Ki of O=C(c1ccc(F)cc1)C1CCN(CCC(Oc2ccc(C(F)(F)F)cc2)c2ccccc2)CC1 (stereo not drawn) [Compound 29b] : 73.7

Measured Ki, CN1CCN(CCC(Oc2ccc(C(F)(F)F)cc2)c2ccccc2)CC1 (stereo not drawn) [Compound 27b] : 1740

The reported value for Fc1ccc(OC(CCN2CCN(c3cccc(C(F)(F)F)c3)CC2)c2ccccc2)cc1 (stereo not drawn) [Compound 20b] in terms of Ki is 747

Ki for COc1ccccc1N1CCN(CCC(Oc2ccc(F)cc2)c2ccccc2)CC1 (stereo not drawn) [Compound 22b] is 761

The recorded Ki for O=C(CCCN1CCN(CCC(Oc2ccc(F)cc2)c2ccccc2)CC1)c1ccc(F)cc1 (stereo not drawn) [Compound 32b] is 420

Sample O=C(c1ccc(F)cc1)C1CCN(CCC(Oc2ccc(F)cc2)c2ccccc2)CC1 (stereo not drawn) [Compound 28b] ; Ki observed: 69.6

Reported Ki of CN1CCN(CCC(Oc2ccc(F)cc2)c2ccccc2)CC1 (stereo not drawn) [Compound 26b] : 1330

----------
Molecular target: UniProt P28223
Assay: NIH-PDSP binding assay, 5-HT2A (3H-ketanserin)
Conditions: Table 7, Homologues Type I (Aminoethane Derivatives); — = No significant inhibition
pKi: −log10 of the molar value.
experimental_endpoint: pKi

* COc1ccccc1N1CCN(CC(Oc2ccc(C(F)(F)F)cc2)c2ccccc2)CC1 (stereo not drawn) | < 5.00
* O=C(CCCN1CCN(CC(Oc2ccc(F)cc2)c2ccccc2)CC1)c1ccc(F)cc1 (stereo not drawn) [Compound 14b] | ≤ 5.00

The molecule identified as Fc1ccc2c(C3CCN(CC(Oc4ccc(C(F)(F)F)cc4)c4ccccc4)CC3)noc2c1 (stereo not drawn) [Compound 13b] registered its pKi at < 5.00

Measured values drawn from patent US20120016124A1 for this set.
